- assay-system: recombinant CETP (rCETP) (Homo sapiens)
- run-description: RTA assay using recombinant CETP (2% RTA)
- Format: biochemical
- assay-conditions: RTA assay in 2% human serum; read-out: IC50
Task for the reader: assign each of the following compounds its reported pIC50.
Numbers only, as −log10 of the molar value.

Take a look at these entries with their results.
compound	assay-system	reported-value
C[C@H]1[C@@H](c2cc(C(F)(F)F)cc(C(F)(F)F)c2)OC(=O)N1Cc1nc(N2CC(F)(F)C2)ncc1-c1cc([C@H]2CC[C@H](C(=O)O)CC2)ccc1Cl [Example 177]	recombinant CETP (rCETP) (Homo sapiens)	7.72
COC(=O)CCc1ccc(OC2CC2)c(-c2c(C)cc(N3CCC3)nc2CN2C(=O)O[C@H](c3cc(C(F)(F)F)cc(C(F)(F)F)c3)[C@@H]2C)c1 [Example 215]	recombinant CETP (rCETP) (Homo sapiens)	8.22
COc1ccc([C@@H]2CC[C@@H](C(=O)O)C2)cc1-c1ccc(N2CCC2)nc1CN1C(=O)O[C@H](c2cc(C(F)(F)F)cc(C(F)(F)F)c2)[C@@H]1C (single isomer, unassigned) [Example 238]	recombinant CETP (rCETP) (Homo sapiens)	8.30
COC(=O)c1ccc(-c2ccc(OC)c(-c3ccc(N4CCC4)nc3CN3C(=O)O[C@H](c4cccc(C)c4)[C@@H]3C)c2)c(C)c1 [Example 212]	recombinant CETP (rCETP) (Homo sapiens)	7.12
COc1ccc(-c2ccc(C(=O)O)nc2)cc1-c1ccc(N2CCC2)nc1CN1C(=O)O[C@H](c2cc(C(F)(F)F)cc(C(F)(F)F)c2)[C@@H]1C [Example 120]	recombinant CETP (rCETP) (Homo sapiens)	7.48

We now examine a further compound.
(Q) Supply measured pIC50 of COc1cc2c(cc1-c1ccc(N3CCC3)nc1CN1C(=O)O[C@H](c3cc(C)cc(C)c3)[C@@H]1C)[C@H](CC(=O)O)CC2 [Example 230] in your reply.
(A) 7.02

* * *

Task for the reader: assign each of the following compounds its reported pIC50.
- assay-system: recombinant CETP (rCETP) (Homo sapiens, UniProt P11597)
- Sequence (P11597 18-493): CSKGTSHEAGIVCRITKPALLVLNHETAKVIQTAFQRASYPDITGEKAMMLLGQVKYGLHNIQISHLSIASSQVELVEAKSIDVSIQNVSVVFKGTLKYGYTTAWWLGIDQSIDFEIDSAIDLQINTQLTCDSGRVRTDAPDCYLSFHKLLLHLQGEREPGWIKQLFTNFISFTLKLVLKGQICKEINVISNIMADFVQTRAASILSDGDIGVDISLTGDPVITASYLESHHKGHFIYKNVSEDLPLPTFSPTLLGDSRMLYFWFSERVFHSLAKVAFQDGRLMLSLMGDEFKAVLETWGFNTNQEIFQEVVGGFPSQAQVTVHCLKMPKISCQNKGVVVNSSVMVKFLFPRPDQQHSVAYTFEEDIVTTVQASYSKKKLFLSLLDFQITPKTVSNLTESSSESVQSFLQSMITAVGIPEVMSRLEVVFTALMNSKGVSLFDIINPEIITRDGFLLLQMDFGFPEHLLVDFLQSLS
- run-description: RTA assay using recombinant CETP (2% RTA)
- Format: biochemical
- assay-conditions: RTA assay in 2% human serum; read-out: IC50
One number for each entry, as −log10 of the molar value.

Take a look at these entries with their results.
compound	assay-system	measured-attribute	reported-value
COc1ccc(-c2nc(C)c(C(=O)O)s2)cc1-c1ccc(N2CCC2)nc1CN1C(=O)O[C@H](c2cc(C(F)(F)F)cc(C(F)(F)F)c2)[C@@H]1C	recombinant CETP (rCETP) (Homo sapiens, UniProt P11597)	pIC50	7.11
COC(=O)c1ccc(-c2ccc(OC)c(-c3ccc(N4CCC4)nc3CN3C(=O)O[C@H](c4cc(C(F)(F)F)cc(C(F)(F)F)c4)[C@@H]3C)c2)o1	recombinant CETP (rCETP) (Homo sapiens, UniProt P11597)	pIC50	7.47
CCOC(=O)[C@@H]1C[C@H]1c1ccc(OC)c(-c2ccc(N3CCC3)nc2CN2C(=O)O[C@H](c3cc(C(F)(F)F)cc(C(F)(F)F)c3)[C@@H]2C)c1	recombinant CETP (rCETP) (Homo sapiens, UniProt P11597)	pIC50	8.22
COc1ccc([C@@H]2CC[C@H](C(=O)O)C2)cc1-c1ccc(N2CCC2)nc1CN1C(=O)O[C@H](c2cc(C(F)(F)F)cc(C(F)(F)F)c2)[C@@H]1C (single isomer, unassigned) [Example 245]	recombinant CETP (rCETP) (Homo sapiens, UniProt P11597)	pIC50	8.05
COc1ccc([C@H]2C[C@@H](C(=O)OC)C2)cc1-c1c(C)cc(N2CCC2)nc1CN1C(=O)O[C@H](c2cc(C(F)(F)F)cc(C(F)(F)F)c2)[C@@H]1C (single isomer, unassigned) [Example 42]	recombinant CETP (rCETP) (Homo sapiens, UniProt P11597)	pIC50	6.99
COc1ccc(-c2ccc(C(=O)O)cc2C)cc1-c1cnc(N2CC(OC)C2)nc1CN1C(=O)O[C@H](c2cc(C(F)(F)F)cc(C(F)(F)F)c2)[C@@H]1C	recombinant CETP (rCETP) (Homo sapiens, UniProt P11597)	pIC50	7.80
COc1cc2c(cc1-c1ccc(N3CCC3)nc1CN1C(=O)O[C@H](c3cccc(C)c3)[C@@H]1C)[C@H](CC(=O)O)CC2	recombinant CETP (rCETP) (Homo sapiens, UniProt P11597)	pIC50	6.39
CCOC(=O)C[C@@H]1CCc2cc(OC)c(-c3cnc(N4CC(F)(F)C4)nc3CN3C(=O)O[C@H](c4cc(C(F)(F)F)cc(C(F)(F)F)c4)[C@@H]3C)cc21	recombinant CETP (rCETP) (Homo sapiens, UniProt P11597)	pIC50	7.49
COc1ccc(-c2cnc(C(=O)O)cn2)cc1-c1ccc(N2CCC2)nc1CN1C(=O)O[C@H](c2cc(C(F)(F)F)cc(C(F)(F)F)c2)[C@@H]1C	recombinant CETP (rCETP) (Homo sapiens, UniProt P11597)	pIC50	7.47
COc1ccc([C@H]2C[C@@H]2C(=O)O)cc1-c1c(C)cc(N2CCC2)nc1CN1C(=O)O[C@H](c2cc(C(F)(F)F)cc(C(F)(F)F)c2)[C@@H]1C	recombinant CETP (rCETP) (Homo sapiens, UniProt P11597)	pIC50	8.30

We now examine a further compound.
(Q) Supply measured pIC50 of COC(=O)CCc1ccc(OC)c(-c2cnc(N3CC(F)(F)C3)nc2CN2C(=O)O[C@H](c3cc(C(F)(F)F)cc(C(F)(F)F)c3)[C@@H]2C)c1 in your reply.
(A) 7.77

* * *

- assay-system: recombinant CETP (rCETP) (Homo sapiens, UniProt P11597)
- Sequence (P11597 18-493): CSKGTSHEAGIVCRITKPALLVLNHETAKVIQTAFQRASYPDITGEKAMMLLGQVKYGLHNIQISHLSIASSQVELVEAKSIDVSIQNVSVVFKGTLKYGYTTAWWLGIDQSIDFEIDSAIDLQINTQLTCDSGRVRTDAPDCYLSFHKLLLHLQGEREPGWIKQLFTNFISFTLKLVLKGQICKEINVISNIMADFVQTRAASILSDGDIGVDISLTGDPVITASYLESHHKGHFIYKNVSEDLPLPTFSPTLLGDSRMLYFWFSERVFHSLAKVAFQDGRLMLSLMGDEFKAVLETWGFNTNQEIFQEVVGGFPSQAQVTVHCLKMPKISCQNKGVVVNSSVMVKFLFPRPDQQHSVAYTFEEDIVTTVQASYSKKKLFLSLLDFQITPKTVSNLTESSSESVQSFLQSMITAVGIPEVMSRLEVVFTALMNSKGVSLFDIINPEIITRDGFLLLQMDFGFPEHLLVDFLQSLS
- run-description: RTA assay using recombinant CETP (2% RTA)
- Format: biochemical
- assay-conditions: RTA assay in 2% human serum; read-out: IC50
Friendly reminder: IC50 below 80 nM is met, at or above is not met.

Here are 4 compounds together with their reported answers.
In [3]: df
Out[3]:
                                 cpd_smiles  assigned_label
0  CCc1ccc([C@@H]2C[C@H]2C(=O)O)cc1-c1ccc(N2CCC2)nc1CN1C(=O)O[C@H](c2cc(C(F)(F)F)cc(C(F)(F)F)c2)[C@@H]1C             met
1  CCOC(=O)C[C@@H]1CCc2cc(OC)c(-c3cnc(N4CCC4)nc3CN3C(=O)O[C@H](c4cc(C(F)(F)F)cc(C(F)(F)F)c4)[C@@H]3C)cc21         not met
2  CCc1ccc(-c2ccc(C(=O)O)cc2C)cc1-c1cnc(N2CC(F)(F)C2)nc1CN1C(=O)O[C@H](c2cc(C(F)(F)F)cc(C(F)(F)F)c2)[C@@H]1C             met
3  COC(=O)c1ccc(-c2ccc(OC)c(-c3cnc(N4CC(F)(F)C4)nc3CN3C(=O)O[C@H](c4cc(C(F)(F)F)cc(C(F)(F)F)c4)[C@@H]3C)c2)c(C)c1             met

(Q) Take the compound COc1ccc([C@H]2CC[C@H](C(=O)O)CC2)cc1-c1ccc(N2CCC2)nc1CN1C(=O)O[C@H](c2cc(F)cc(F)c2)[C@@H]1C and say whether its IC50 is less than 80 nM.
(A) not met

All figures here come from patent US9221834B2.
